Data origin, for the record: ChEMBL document CHEMBL1148588

- measured_on: Lethal factor (Bacillus anthracis, UniProt P15917)
- Sequence (P15917 whole entry): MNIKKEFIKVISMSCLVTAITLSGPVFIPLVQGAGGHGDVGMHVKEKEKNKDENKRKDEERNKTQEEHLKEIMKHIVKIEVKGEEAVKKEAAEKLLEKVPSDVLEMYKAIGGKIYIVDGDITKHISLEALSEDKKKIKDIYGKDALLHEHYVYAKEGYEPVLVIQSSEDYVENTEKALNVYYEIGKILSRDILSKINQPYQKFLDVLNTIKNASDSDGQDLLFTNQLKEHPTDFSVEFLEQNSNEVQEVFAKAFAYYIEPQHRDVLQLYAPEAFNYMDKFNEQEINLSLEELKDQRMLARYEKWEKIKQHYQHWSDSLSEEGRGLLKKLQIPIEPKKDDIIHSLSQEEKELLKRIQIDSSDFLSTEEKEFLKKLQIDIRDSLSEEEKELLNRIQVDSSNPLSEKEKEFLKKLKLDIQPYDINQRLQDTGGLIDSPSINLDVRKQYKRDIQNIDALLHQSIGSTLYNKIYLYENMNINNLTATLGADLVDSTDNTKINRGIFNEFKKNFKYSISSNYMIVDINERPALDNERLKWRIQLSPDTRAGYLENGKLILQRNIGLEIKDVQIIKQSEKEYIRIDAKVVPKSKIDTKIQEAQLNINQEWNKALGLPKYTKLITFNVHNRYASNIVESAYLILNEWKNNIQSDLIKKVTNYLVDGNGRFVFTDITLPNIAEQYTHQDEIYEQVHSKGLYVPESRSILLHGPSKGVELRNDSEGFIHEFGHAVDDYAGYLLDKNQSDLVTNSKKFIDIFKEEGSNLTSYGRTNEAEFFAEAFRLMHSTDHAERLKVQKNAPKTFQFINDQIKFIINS
List of pIC50 values.
Friendly reminder that pIC50 comes from taking -log10 of the concentration in mol/L.

[
  {
    "compound_structure_string": "O=C(O)CN1C(=O)S/C(=C\\c2ccc(-c3cc(C(F)(F)F)ccc3Cl)o2)C1=O",
    "measured_on": "Lethal factor (Bacillus anthracis, UniProt P15917)",
    "reported_property": "pIC50",
    "assay_result": 5.23
  },
  {
    "compound_structure_string": "O=C(O)CN1C(=O)/C(=C/c2ccc(-c3ccc(I)cc3)o2)SC1=S",
    "measured_on": "Lethal factor (Bacillus anthracis, UniProt P15917)",
    "reported_property": "pIC50",
    "assay_result": 5.25
  }
]

Now for another entry.
Please tell me: pIC50 of `O=C(O)CN1C(=O)S/C(=C\c2ccc(-c3ccc(Cl)cc3[N+](=O)[O-])o2)C1=O` , system Lethal factor (Bacillus anthracis, UniProt P15917)?
6.30
